SUBJECT OF TEST: UniProtKB P23743
Sequence (P23743 other isoform, or with tags, fused parts or gaps): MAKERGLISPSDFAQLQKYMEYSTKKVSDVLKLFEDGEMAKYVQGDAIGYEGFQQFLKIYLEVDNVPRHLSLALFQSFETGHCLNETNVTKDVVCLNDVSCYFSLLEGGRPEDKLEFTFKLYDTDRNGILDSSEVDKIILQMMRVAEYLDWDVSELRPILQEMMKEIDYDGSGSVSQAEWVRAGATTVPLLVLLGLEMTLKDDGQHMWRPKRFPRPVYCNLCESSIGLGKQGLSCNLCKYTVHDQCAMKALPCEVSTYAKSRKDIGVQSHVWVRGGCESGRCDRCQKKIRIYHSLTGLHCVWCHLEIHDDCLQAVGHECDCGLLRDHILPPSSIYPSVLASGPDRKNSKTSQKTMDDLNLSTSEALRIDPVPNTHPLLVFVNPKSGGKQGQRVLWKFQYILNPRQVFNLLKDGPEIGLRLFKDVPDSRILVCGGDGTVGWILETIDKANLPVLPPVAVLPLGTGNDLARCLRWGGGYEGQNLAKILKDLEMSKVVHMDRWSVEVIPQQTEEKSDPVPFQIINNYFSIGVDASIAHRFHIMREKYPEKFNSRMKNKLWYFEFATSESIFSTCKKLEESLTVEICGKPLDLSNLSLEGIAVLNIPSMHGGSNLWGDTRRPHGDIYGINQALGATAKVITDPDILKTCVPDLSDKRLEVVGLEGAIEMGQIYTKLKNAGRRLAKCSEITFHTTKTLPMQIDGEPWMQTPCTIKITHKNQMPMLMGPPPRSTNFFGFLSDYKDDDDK
ASSAY PROCEDURE: Human DGKα kinase activity inhibition assay (ADP-Glo)
CONDITION PARAMETERS: recombinant full-length human DGKα, 55 μM ATP, 7 μM 1,2-dioleoyl-sn-glycerol, read-out: IC50 values of examples in in vitro human DGKa kinase activity inhibition assays
ASSAY METRIC: IC50 (nM)
Answers are plain numbers, in nM.

Use the examples below as a reference point.
Cn1c(=O)c(C#N)c(N2CCC(c3nc4c(F)cccc4o3)CC2)c2ccccc21 :: 10
Cc1ccc2oc(C3(C)CCN(c4c(C#N)c(=O)n(C)c5cc(C#N)ccc45)CC3)nc2c1 :: 7.2
Cc1ccc2oc(C3(C)CCN(c4c(C#N)c(=O)n(C)c5cc(C)ccc45)CC3)nc2c1 :: 1.7

Value sought for every listed molecule: IC50.
1. Cc1cc(F)cc(C2CCN(c3c(C#N)c(=O)n(C)c4ccccc34)CC2)c1
2. Cc1ccc2oc(C3CCN(c4c(C(N)=O)c(=O)n(C)c5cc(O)c(Br)cc45)CC3)nc2c1
3. Cc1ccc2oc(C3(C)CCN(c4c(C#N)c(=O)n(C)c5cc(N6C[C@H](O)CC6=O)ccc45)CC3)nc2c1
4. Cc1ccc2oc(C3(C)CCN(c4c(C#N)c(=O)n(C)c5ccc(OC6CCC6)cc45)CC3)nc2c1
5. Cc1ccc2oc(C3(C)CCN(c4c(C(N)=O)c(=O)n(C)c5ccc(N6C[C@H](O)CC6=O)cc45)CC3)nc2c1
6. Cc1ccc2c(c1)c(N1CCC(c3nc4ccccc4o3)CC1)c(C#N)c(=O)n2C

OUTPUT:
1: 8.3; 2: 1.5; 3: 71; 4: 480; 5: 4740; 6: 2.6

State the recorded IC50 for every item in the following list.
1. Cn1c(=O)c(C#N)c(N2CCC(c3nc4ccccc4s3)CC2)c2cccc(F)c21
2. Cn1c(=O)c(C#N)c(N2CCC(c3nnc(-c4cccc(Cl)c4)o3)CC2)c2ccccc21
3. Cn1c(=O)c(C#N)c(N2CCC(c3cccc(N4CCOCC4)c3)CC2)c2ccccc21
4. Cc1ccc2oc(C3(C)CCN(c4c(C(N)=O)c(=O)n(C)c5cc(O)c(Br)cc45)CC3)nc2c1

OUTPUT:
[34, 112, 39, 0.8]

// input: 2 molecules below; output: IC50 for each
1. CCCOc1ccc2c(c1)c(N1CCC(C)(c3nc4cc(C)ccc4o3)CC1)c(C#N)c(=O)n2C
2. Cn1c(=O)c(C#N)c(N2CCC(c3nc4ccccc4s3)CC2)c2cc(C3CC3)ccc21

OUTPUT:
[1280, 216]

Respectfully, I request IC50 for each entry included below.
1. Cc1ccccc1-c1nnc(C2CCN(c3c(C#N)c(=O)n(C)c4ccccc34)CC2)o1
2. Cn1c(=O)c(C#N)c(N2CCC(c3nnc(-c4cccc(C(F)(F)F)c4)o3)CC2)c2cc(Br)ccc21
3. Cc1ccc2oc(C3CCN(c4c(C(N)=O)c(=O)n(C)c5cc(C(F)(F)F)ccc45)CC3)nc2c1

OUTPUT:
1: 87; 2: 4.3; 3: 5.7
